Attribution: patent US6168939A

Biological target: endopeptidase produced by Lactobacillus helveticus (Lactobacillus helveticus, UniProt Q6UP05)
Construct: N-terminus […]
Sequence (Q6UP05 1-643): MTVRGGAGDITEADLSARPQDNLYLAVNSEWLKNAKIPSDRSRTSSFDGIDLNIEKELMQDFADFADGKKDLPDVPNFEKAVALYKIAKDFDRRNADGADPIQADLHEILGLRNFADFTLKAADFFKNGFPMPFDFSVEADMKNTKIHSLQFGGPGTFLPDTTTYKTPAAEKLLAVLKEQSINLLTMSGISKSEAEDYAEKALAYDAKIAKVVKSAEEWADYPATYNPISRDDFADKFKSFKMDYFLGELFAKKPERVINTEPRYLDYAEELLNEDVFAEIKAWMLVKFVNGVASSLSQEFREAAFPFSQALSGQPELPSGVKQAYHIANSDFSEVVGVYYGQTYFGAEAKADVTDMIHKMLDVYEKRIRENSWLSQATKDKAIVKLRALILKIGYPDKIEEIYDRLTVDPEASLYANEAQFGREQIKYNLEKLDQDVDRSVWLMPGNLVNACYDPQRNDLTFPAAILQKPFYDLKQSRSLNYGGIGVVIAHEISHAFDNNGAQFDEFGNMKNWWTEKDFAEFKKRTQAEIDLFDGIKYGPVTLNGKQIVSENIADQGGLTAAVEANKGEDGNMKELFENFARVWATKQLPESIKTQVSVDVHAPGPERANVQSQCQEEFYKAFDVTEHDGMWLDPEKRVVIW
Assay: Substrate specificity: hydrolysis of substrates by the endopeptidase
Type: biochemical
Set-up: key: + represents that a substrate was hydrolyzed; - represents that a substrate was not hydrolyzed
Settings: 2 to 5 mM substrate, 50 mM HEPES pH 7.0, 30° C., 5.0 hrs
Protocol: The substrate specificity of the endopeptidase of the present invention was determined. In 200 μl of 2 to 5 mM substrate in 50 mM HEPES buffer, pH 7.0, 10 μl of the endopeptidase solution of the present invention in 50 mM HEPES buffer, pH 7.0, at five μg/ml was added and incubated at 30° C. for 5.0 hrs. […] The hydrolysis was determined from the decrease of the peak area of the substrate and/or the appearance of a new peak(s) at 214 nm on the chromatogram.
Numbered stars: 1 amine (or outer) side, 2 acyl side, 3 side chain; on linkers, the order of the positions; unused ones are H or OH. Peptide text beside a SMILES is read from it. * marks the point of attachment. pNA = O=[N+]([O-])c1ccc(N*)cc1; Suc = O=C(CCC(=O)[*:2])[*:1]; MeOSuc = COC(=O)CCC(=O)*

| Molecule | Hydrolysis |
| --- | --- |
| O=C(Nc1ccc([N+](=O)[O-])cc1)[C@@H]1CCCN1 | - |
| NCCCC[C@H](N)C(=O)Nc1ccc([N+](=O)[O-])cc1 | - |
| CC(C)C[C@H](NC(=O)[C@@H]1CCCN1C(=O)[C@H](C)NC(=O)[C@H](C)NC(=O)CCC(=O)O)C(=O)Nc1ccc([N+](=O)[O-])cc1 [Suc-Ala-Ala-Pro-Leu-pNA] (Suc-AAPL-pNA) | - |
| CSCC[C@H](NC(=O)[C@H](CC(C)C)NC(=O)CNC(=O)[C@H](Cc1ccccc1)NC(=O)[C@H](Cc1ccccc1)NC(=O)[C@H](CCC(N)=O)NC(=O)[C@H](CCC(N)=O)NC(=O)[C@@H]1CCCN1C(=O)[C@H](CCCCN)NC(=O)[C@@H]1CCCN1C(=O)[C@@H](N)CCCNC(=N)N)C(N)=O | + |
| CSCC[C@H](NC(=O)[C@H](Cc1ccccc1)NC(=O)CNC(=O)CNC(=O)[C@@H](N)Cc1ccc(O)cc1)C(=O)O | + |
| O=C(O)CCC(=O)N[C@@H](Cc1ccccc1)C(=O)Nc1ccc([N+](=O)[O-])cc1 | - |
| COC(=O)CCC(=O)N[C@@H](CCCNC(=N)N)C(=O)N1CCC[C@H]1C(=O)N[C@@H](Cc1ccc(O)cc1)C(=O)Nc1ccc([N+](=O)[O-])cc1 [MeO-Suc-Arg-Pro-Tyr-pNA] (MeOSuc-Arg-Pro-Tyr-pNA) | - |
